- Test System: Aβ 1-42 fibrils (Homo sapiens, UniProt P05067)
- Construct: purchased Bachem Inc
- Sequence (P05067 672-713): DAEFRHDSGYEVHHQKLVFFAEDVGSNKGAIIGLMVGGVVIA
- Experiment Description: Thioflavin T fluorometry - disruption of pre-formed Aβ 1-42 Alzheimer's fibrils
- Format: biochemical
- Experimental Context: Aβ:test compound wt/wt ratio 1:0.1; 25 μM pre-fibrillized Aβ 1-42, 37° C., 3 days; read-out: % Inhibition Aβ (result ± S.D.)
Threshold rule: inhibition greater than or equal to 80% is criterion met; below that, criterion not met.

Answered examples (5):
INSERT INTO results (compound, test_system, class_name) VALUES
  ('O=C(CCC(=O)NCc1ccc(O)c(O)c1)NCc1ccc(O)c(O)c1', 'Aβ 1-42 fibrils (Homo sapiens, UniProt P05067)', 'criterion not met'),
  ('O=C(c1ccc(O)c(O)c1)N1CCN(C(=O)c2ccc(O)c(O)c2)CC1 [Compound 23, 1,4-bis(3,4-dihydroxybenzoyl)piperazine]', 'Aβ 1-42 fibrils (Homo sapiens, UniProt P05067)', 'criterion not met'),
  ('O=C(c1ccc(O)c(O)c1)C(O)c1ccc(O)c(O)c1 (stereo not shown) [Compound 1, 3,4,3′,4′-tetrahydroxybenzoin]', 'Aβ 1-42 fibrils (Homo sapiens, UniProt P05067)', 'criterion not met'),
  ('Oc1ccc(CN(Cc2ccc(O)c(O)c2)Cc2ccc(O)c(O)c2)cc1O [Compound 75, tris(3,4-dihydroxybenzyl)amine]', 'Aβ 1-42 fibrils (Homo sapiens, UniProt P05067)', 'criterion met'),
  ('O=C(CCc1ccc(O)c(O)c1)NCc1ccc(O)c(O)c1', 'Aβ 1-42 fibrils (Homo sapiens, UniProt P05067)', 'criterion not met');

Proceed to the following item.
# bool: inhibition of Oc1ccc(CNCc2ccc(O)c(O)c2)cc1O [Compound 73, bis(3,4-dihydroxybenzyl)amine] >= 80%
criterion not met

---

# % Inhibition Aβ (result ± S.D.), Congo red binding per record follows
- Test System: Aβ 1-42 fibrils (Homo sapiens, UniProt P05067)
- Construct: purchased Bachem Inc
- Experiment Description: Congo red binding assay with Aβ 1-42 fibrils
- Format: biochemical
- Experimental Context: Aβ:test compound wt/wt ratio 1:1; 3-day incubation
Give just the numeric value; % need not be written.

INSERT INTO measurements (molecule, value_unit, numeric_result) VALUES
  ('O=C(O)CN(CCN(CC(=O)O)CC(=O)O)CC(=O)O [EDTA, reference compound]', '%', 1.1),
  ('Oc1ccc(CCc2ccc(O)c(O)c2)cc1O [Compound 4, 1,2-bis(3,4-dihydroxyphenyl)ethane]', '%', 73.0),
  ('Oc1ccc(Cc2ccc(O)c(O)c2)cc1O [Compound 3, 3,4,3′,4′-tetrahydroxydiphenylmethane]', '%', 91.6);

Proceeding to the next molecule to report its % Inhibition Aβ (result ± S.D.), Congo red binding.
Look up Aβ 1-42 fibrils (Homo sapiens, UniProt P05067) data: % Inhibition Aβ (result ± S.D.), Congo red binding of CN1C2CCC1C(Cc1ccc(O)c(O)c1)C(=O)C2Cc1ccc(O)c(O)c1 (stereo not shown) [Compound 19, 2,4-bis(3,4-dihydroxybenzyl)-3-tropinone] , then report it.
48.1

---

- Test System: IAPP fibrils (Homo sapiens)
- Construct: purchased Bachem Inc
- Sequence (P10997 34-70 limits assumed): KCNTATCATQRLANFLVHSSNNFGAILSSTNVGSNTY
- Experiment Description: Congo red binding assay with IAPP fibrils
- Assay type: biochemical
- Experimental Context: IAPP:test compound wt/wt ratio 1:1; 3-day incubation
Measurement Kind: % Inhibition IAPP (result ± S.D.), Congo red binding (%)
Give just the numeric value; % need not be written.

INSERT INTO assay_data (compound, numeric_result) VALUES
  ('O=C(O)CN(CCN(CC(=O)O)CC(=O)O)CC(=O)O [EDTA, reference compound]', 0.0);

Proceeding to the next compound to report its % Inhibition IAPP (result ± S.D.), Congo red binding.
Dear colleague, please send me the reported % Inhibition IAPP (result ± S.D.), Congo red binding for O=C(CCc1ccc(O)c(O)c1)NCc1ccc(O)c(O)c1 when you can.
24.5
